Molecular target: mouse TAAR1 (Mus musculus (Mouse), UniProt Q923Y8)
Sequence (Q923Y8 whole entry): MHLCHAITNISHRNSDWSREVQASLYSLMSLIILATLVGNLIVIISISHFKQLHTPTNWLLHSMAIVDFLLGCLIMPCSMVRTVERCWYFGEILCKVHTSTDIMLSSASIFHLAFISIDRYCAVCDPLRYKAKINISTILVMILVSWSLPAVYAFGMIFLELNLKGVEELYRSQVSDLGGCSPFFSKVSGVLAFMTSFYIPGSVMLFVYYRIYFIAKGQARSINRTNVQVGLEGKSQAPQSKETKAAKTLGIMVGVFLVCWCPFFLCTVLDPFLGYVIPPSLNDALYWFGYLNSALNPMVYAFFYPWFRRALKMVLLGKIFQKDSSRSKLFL
Experiment: Radioligand binding assay on mouse TAAR1
Details: mouse TAAR1, membranes of stably transfected HEK-293 cells; first value of the pair; read-out: Ki (μM) mouse/rat: mouse
Can you tell me Ki for the items I'm about to list?
Response body: numeric value in µM, unit text excluded.

Request: Find Ki (mouse TAAR1 (Mus musculus (Mouse), UniProt Q923Y8)) for the entry CCc1ncc(C(=O)Nc2ccc([C@H]3CNCCO3)nc2)cn1
Result: 0.673

Request: API: value(readout=Ki, system=mouse TAAR1 (Mus musculus (Mouse), UniProt Q923Y8)) for record Clc1ccc(Nc2ccc([C@@H]3CNCCO3)nc2)nc1
Result: 0.0019

Request: Entry CCCCc1cc(C(=O)Nc2ccc([C@H]3CNCCO3)nc2)[nH]n1 , system mouse TAAR1 (Mus musculus (Mouse), UniProt Q923Y8): what Ki was measured?
Result: 0.0043

Request: Field: Ki (mouse TAAR1 (Mus musculus (Mouse), UniProt Q923Y8)). Entry: CCCc1n[nH]c(C(=O)Nc2ccc([C@H]3CNCCO3)nc2)c1F
Result: 0.0046

Request: Query for mouse TAAR1 (Mus musculus (Mouse), UniProt Q923Y8): what Ki does the record show for O=C(Nc1ccc([C@@H]2CNCCO2)nc1)Nc1cccc(C(F)(F)F)c1 ?
Result: 0.0038
